Where these numbers come from: patent US20190321483A1

# ASSAY TARGET: Human cKIT on human mobilized peripheral blood hematopoietic stem cells (human, UniProt P10721 26-976)
# PROCEDURE TEXT: cell-based or functional assay
OBSERVATION TYPE: EC50 (ng/ml), cell viability after 7 days, Human CD34+ cells (ng/mL)
Give your result in ng/mL as a bare value.

binder="J21: Anti-cKIT Fab′3 conjugated to Compound (5), DAR 4 (Fab, V domains shown, Compound (5) on native cysteine LC-214C (EU); Compound (5) on native cysteines HC-220C-226C-229C (EU)) VH: QVQLVQSGAEVKKPGSSVKVSCKASGGTFSSYAISWVRQAPGQGLEWMGTIGPFEGQPRYAQKFQGRVTITADESTSTAYMELSSLRSEDTAVYYCARGGYISDFDVWGQGTLVTVSS VL: DIQMTQSPSSLSASVGDRVTITCRASQSISNYLAWYQQKPGKAPKLLIYDASSLQSGVPSRFSGSGSGTDFTLTISSLQPEDFATYYCQQYYYESITFGQGTKVEIKR" endpoint_value=88

# evaluate next
Field EC50 (ng/ml), cell viability after 7 days, Human CD34+ cells (entry J14: Anti-cKIT Fab′1 conjugated to mc-MMAF, DAR 4 (Fab, V domains shown, mc-MMAF on native cysteine LC-214C (EU); mc-MMAF on native cysteines HC-220C-226C-229C (EU)) VH: QVQLVQSGAEVKKPGSSVKVSCKASGGTFSSYAISWVRQAPGQGLEWMGVIFPAEGAPGYAQKFQGRVTITADESTSTAYMELSSLRSEDTAVYYCARGGYISDFDVWGQGTLVTVSS VL: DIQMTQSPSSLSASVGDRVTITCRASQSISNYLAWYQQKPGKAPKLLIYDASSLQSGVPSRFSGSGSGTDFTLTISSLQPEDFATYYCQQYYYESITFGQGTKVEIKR ) reads 10
